Values were extracted from ChEMBL document CHEMBL3988442.

- TARGET SYSTEM: AMP-activated protein kinase, AMPK (Homo sapiens) (UniProt P54646+O43741+P54619+Q9UGJ0+Q9Y478+Q13131+Q9UGI9)
- PROTOCOL DETAILS: AMP-dependent Kinase enzyme assay. An in vitro enzyme assay that detects ADP turnover that is directly proportional to AMPK activity. This uses naive AMPK that is activated during the assay with MK-8722
- Assay type: functional
- Set-up: scale not given: direction of the effect not stated beside the values
- PARTICULARS: 30 µM
Measured Percent Effect, listed per entry.
Output should be the measured figure followed by the unit it is expressed in.

compound="Cc1cc(C(=O)N2CCCC(n3ccnc3C)C2)c(C)s1 (configuration not stated)" readout_value=5.18%
compound="CCc1nnsc1C(=O)N1CCOC(c2nc(C)n[nH]2)C1 (configuration not stated)" readout_value=-2.61%
compound=O=c1nc(CNc2ccccc2)[nH]n1Cc1ccccc1 readout_value=10.7%
compound=CNC(=O)N1CC[C@@H]2CN(Cc3cccnc3)S(=O)(=O)[C@@H]2CC1 readout_value=4.84%
compound=CSc1ncccc1C(=O)NCc1ccc(CS(=O)(=O)NC(C)C)cc1 readout_value=2.75%
compound="Cn1cc(C2CCCN2C(=O)CCCOc2ccc(F)cc2F)cn1 (configuration not stated)" readout_value=1.86%

Percent Effect lookup needed for Cc1nc(COCc2cnc3n2CCN(CC2CCC2)C3C)cs1 (configuration not stated) , thanks.
-6.08%
